# Tested on: laccase (NS51003, Novozymes A/S, Denmark)
# ASSAY_REMARKS: Delignification of a softwood Kraft pulp using a laccase-mediator system (change in Kappa number, TAPPI T236 cm-85)
# Assay type: biochemical
# Protocol: Delignification of a Softwood Kraft Pulp Using a Laccase-Mediator System in the Presence of a Mediator In the following example, a softwood Kraft pulp was delignified using a laccase-mediator system. […] The delignification of the pulp was measured as the change in Kappa number according to TAPPI method T236 cm−85. […] After the reaction, the residual permanganate was determined by titration. […]
QUANTITY_KIND: Δ Kappa #
Write the number on its own, no unit after it.

Oc1ccccc1: −1.1
CN(C)C(=S)[S-].O.[Na+] [Sodium dimethyldithio carbonate hydrate]: −0.7
C(=NCc1ccccc1)c1ccccc1: −0.3

--- query ---
Query: Provide the documented Δ Kappa # with laccase (NS51003, Novozymes A/S, Denmark) as the system for Cc1ccc2nc(-c3ccc(N=NNc4ccc(-c5nc6ccc(C)c(S(=O)(=O)[O-])c6s5)cc4)cc3)sc2c1S(=O)(=O)[O-].[Na+].[Na+]
Reply: −3.0
